The next entries give measured IC50 for PDE7A1 catalytic domain (residues 130–482) (Homo sapiens, UniProt Q13946).
Numbers only, in µM.

Previously resolved entries follow.
>>> reported_result("CSc1nc2ccsc2c(=O)n1-c1c(F)cccc1F [compound 36]")
0.8
>>> reported_result("CC(C)Cn1c(=O)n(C)c(=O)c2[nH]cnc21 [IBMX, reference compound]")
8.1
>>> reported_result("CSc1nc2c(sc3ccccc32)c(=O)n1-c1c(F)cccc1F [compound 39]")
0.41

Recorded result, COc1ccc(C2CNC(=O)C2)cc1OC1CCCC1 (centres unmarked) [Rolipram, reference compound] , IC50: 129

From: paper PMC2952885
